Data provenance is PubChem BioAssay AID902.

# protocol.details: qHTS Screen for Compounds that Selectively Target Cancer Cells with p53 Mutations: Cytotoxicity of p53ts Cells at the Nonpermissive Temperature; further: nearly all actives have a fitted effect of over 55% in size
# test.parameters: H1299-p53A138V viability at 39C, ATP luminescence, 24 h; series mostly up to 46.1 µM
The campaign covered roughly 130,000 compounds. About 1,900 (1.5%) were called active. About 5% were inconclusive and are not listed. The call rests on the fitted dose curve; in most records, active means well fitted cell-killing curve with a large enough effect; inconclusive means small, poorly fitted or top-dose-only effect; inactive means no such curve, though single readings can be large or run the other way. The list comes from a sample in which actives are over-represented; it also holds close analogues and randomly drawn compounds.
Classes to choose from: true (1) (active), false (0) (inactive)

[
  {
    "compound": "O=C(CN1CCN(c2ccccn2)CC1)N1CCc2ccccc21",
    "discrete.label": "false (0)"
  },
  {
    "compound": "CC(=O)N1CCCc2cc(S(=O)(=O)N3CCC(C(=O)NCc4ccc(F)cc4)CC3)ccc21",
    "discrete.label": "false (0)"
  },
  {
    "compound": "COC(=O)c1ccc(C2C(C(=O)Nc3ccccc3)=C(C)Nc3nc4ccccc4n32)cc1 (stereo not drawn)",
    "discrete.label": "true (1)"
  },
  {
    "compound": "Cc1ccc(N2CC(NC(=O)Cc3cccs3)CC2=O)cc1 (stereo not drawn)",
    "discrete.label": "false (0)"
  },
  {
    "compound": "Cc1c(C(=O)N2CC(C)OC(C)C2)sc2nc(-c3ccccc3)cn12 (stereo not drawn)",
    "discrete.label": "false (0)"
  },
  {
    "compound": "Cc1cccc(C2CC(=O)Oc3c2c(=O)n(C)c2ccccc32)c1 (stereo not drawn)",
    "discrete.label": "false (0)"
  },
  {
    "compound": "Cc1ccc(C)c(S(=O)(=O)c2nnn3c2nc(N2CCOCC2)c2sccc23)c1",
    "discrete.label": "false (0)"
  },
  {
    "compound": "Cc1cccc(OCC(=O)N(Cc2ccc(C(C)C)cc2)Cc2ccco2)c1C",
    "discrete.label": "false (0)"
  },
  {
    "compound": "CCOC(=O)c1c(S(=O)(=O)N2CCC(C(=O)NCc3ccccc3OC)CC2)c(C)n(C)c1C",
    "discrete.label": "false (0)"
  },
  {
    "compound": "O=C(/C=C/c1ccccc1)N1CCN(Cc2cc(=O)n3nc(-c4ccccc4F)sc3n2)CC1",
    "discrete.label": "false (0)"
  }
]

Each compound tested received a call. Report the one for CCC(CC)c1nnc(NS(=O)(=O)Cc2ccccc2)s1 . false (0)

Each compound tested received a call. Report the one for COc1ccccc1C(=O)Nc1c(C(=O)Nc2ccc(C)cc2)oc2ccccc12 . false (0)
